Where do these numbers come from? They come from ChEMBL document CHEMBL1139259.

Hi there, I'd appreciate the recorded pIC50 for every entry that follows.
Molecular target: UniProtKB P56817
Sequence (P56817 whole entry): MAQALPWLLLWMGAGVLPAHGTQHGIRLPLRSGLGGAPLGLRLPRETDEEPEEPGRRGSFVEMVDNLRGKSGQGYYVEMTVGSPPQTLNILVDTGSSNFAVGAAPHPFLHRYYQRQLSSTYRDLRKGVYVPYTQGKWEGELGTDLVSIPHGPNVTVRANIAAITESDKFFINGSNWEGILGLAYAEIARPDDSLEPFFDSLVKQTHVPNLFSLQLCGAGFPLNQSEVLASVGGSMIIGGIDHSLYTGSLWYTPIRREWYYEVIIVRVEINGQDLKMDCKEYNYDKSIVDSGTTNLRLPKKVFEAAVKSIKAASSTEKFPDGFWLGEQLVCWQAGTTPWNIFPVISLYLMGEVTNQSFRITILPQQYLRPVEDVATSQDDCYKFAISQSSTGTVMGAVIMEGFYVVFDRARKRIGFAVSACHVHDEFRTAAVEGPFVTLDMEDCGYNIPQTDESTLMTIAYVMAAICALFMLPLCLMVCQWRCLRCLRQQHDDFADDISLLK
Answers are plain numbers, as −log10 of the molar value.

Known pIC50 results, listed for orientation:
- C[C@@H](NC(=O)c1cc2c(c(C(=O)N[C@@H](Cc3ccccc3)[C@H](O)CNC3CC3)c1)CCCCO2)c1ccccc1: 7.05
- Cc1cc2c(C(=O)N[C@H](C)c3ccccc3)cc(C(=O)N[C@@H](Cc3ccccc3)[C@H](O)CNC3CC3)cc2o1: 6.28
- C[C@@H](NC(=O)c1cc(C(=O)N[C@@H](Cc2ccccc2)[C@H](O)CNC2CC2)cc(N2CCCS2(=O)=O)c1)c1ccccc1: 5.75
- C[C@@H](NC(=O)c1cc(C(=O)N[C@@H](Cc2ccccc2)[C@H](O)CNC2CC2)cc2c1CCCCO2)c1ccccc1: 7.25
- C#Cc1cc(C(=O)N[C@@H](Cc2ccccc2)[C@H](O)CNC2CC2)cc(C(=O)N[C@H](C)c2ccccc2)c1: 6.05

List the reported pIC50 of each compound below.
1. Cc1cc2c(C(=O)N[C@@H](Cc3ccccc3)[C@H](O)CNC3CC3)cc(C(=O)N[C@H](C)c3ccccc3)cc2o1
2. C[C@@H](NC(=O)c1cc(C#Cc2ccccc2)cc(C(=O)N[C@@H](Cc2ccccc2)[C@H](O)CNC2CC2)c1)c1ccccc1

Given back:
6.00
5.95

====

Molecular target: Beta-secretase 2 (Homo sapiens, UniProt Q9Y5Z0)
Assay: Inhibition of BACE2 expressed in human 293T cells
Consider the following compounds; for each one, report its IC50.

- C[C@@H](NC(=O)c1cc(C(=O)N[C@@H](Cc2ccccc2)[C@H](O)CNC2CC2)cc2c1CCCCO2)c1ccccc1: > 100 µM
- C[C@@H](NC(=O)c1cc(C(=O)N[C@@H](Cc2ccccc2)[C@H](O)CNC2CC2)cc(-c2ccsc2)c1)c1ccccc1: > 100 µM
- C[C@@H](NC(=O)c1cc2c(c(C(=O)N[C@@H](Cc3ccccc3)[C@H](O)CNC3CC3)c1)CCCCO2)c1ccccc1: > 100 µM
- C#Cc1cc(C(=O)N[C@@H](Cc2ccccc2)[C@H](O)CNC2CC2)cc(C(=O)N[C@H](C)c2ccccc2)c1: > 100 µM
- C[C@@H](NC(=O)c1cc(C(=O)N[C@@H](Cc2ccccc2)[C@H](O)CNC2CC2)cc(-c2cn(Cc3ccccc3)nn2)c1)c1ccccc1: > 100 µM
- C[C@@H](NC(=O)c1cc(C(=O)N[C@@H](Cc2ccccc2)[C@H](O)CNC2CC2)cc2c1CCCO2)c1ccc(F)cc1: 2.09 µM

Could you now look at the following compound, please?
Short answer for `C[C@@H](NC(=O)c1cc(C(=O)N[C@@H](Cc2ccccc2)[C@H](O)CNC2CC2)cc(N2CCCS2(=O)=O)c1)c1ccccc1` : IC50 was 0.141 µM

====

Target: Beta-secretase 2 (Homo sapiens)
Sequence (Q9Y5Z0 whole entry): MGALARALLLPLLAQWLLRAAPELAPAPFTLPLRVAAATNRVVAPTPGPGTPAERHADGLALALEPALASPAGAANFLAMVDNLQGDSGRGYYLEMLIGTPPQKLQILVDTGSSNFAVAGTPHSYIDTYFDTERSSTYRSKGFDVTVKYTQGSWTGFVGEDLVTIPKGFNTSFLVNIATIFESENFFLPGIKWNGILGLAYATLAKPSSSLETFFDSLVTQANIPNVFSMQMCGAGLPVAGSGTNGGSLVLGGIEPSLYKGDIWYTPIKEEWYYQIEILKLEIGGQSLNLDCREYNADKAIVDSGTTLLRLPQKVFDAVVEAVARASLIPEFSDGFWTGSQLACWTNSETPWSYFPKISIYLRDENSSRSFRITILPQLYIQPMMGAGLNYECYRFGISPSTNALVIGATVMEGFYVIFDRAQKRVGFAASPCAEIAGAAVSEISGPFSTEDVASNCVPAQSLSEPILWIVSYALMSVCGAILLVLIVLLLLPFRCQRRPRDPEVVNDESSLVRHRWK
Test: Inhibition of BACE2 expressed in human 293T cells
READOUT: IC50

Use the examples below as a reference point.
- Cc1cc2c(C(=O)N[C@@H](Cc3ccccc3)[C@H](O)CNC3CC3)cc(C(=O)N[C@H](C)c3ccccc3)cc2o1: > 100 µM
- C[C@@H](NC(=O)c1cc(O)cc(C(=O)N[C@@H](Cc2ccccc2)[C@H](O)CNC2CC2)c1)c1ccccc1: > 100 µM

For the next question, use this compound.
Recorded IC50 (compound `C[C@@H](NC(=O)c1cc(C(=O)N[C@@H](Cc2ccccc2)[C@H](O)CNC2CC2)cc(-c2ccc(Cl)cc2)c1)c1ccccc1` ): > 100 µM
